Tested on: HIV
protocolDetails: HIV infection assay in cell lines (MT-2, MT-4, Jurkat)
Type: cell-based
assaySetup: Human immunodeficiency virus 1, MT4; read-out: HIV IC50 (uM) (MT-4)
measurementLabel: IC50 (µM)
Write the value in µM as a bare number.

Problem: Param item = O=c1n([C@@H]2CO[C@H](CO)O2)cc(F)c2nc(-c3ccc([N+](=O)[O-])cc3)cn12 ; retrieve measured IC50.
Result: 0.015

====

protocolDetails: Cytotoxicity in PBMCs
Assay type: cell-based
assaySetup: human
Counter-ions that a name gives are not always drawn.
measurementLabel: CC50

Problem: Please look up its CC50: CC(C)[C@H](N)C(=O)OCC1OC[C@H](n2ccc3nc(-c4ccc(F)cc4)cn3c2=O)O1 (stereo partly shown) [Compound 60, HYDROCHLORIDE SALT]
Result: > 10 µM

====

protocolDetails: Cytotoxicity using T cells
Assay type: cell-based
measurementLabel: CC50

{"compound": "O=c1n([C@@H]2CO[C@@H](CO)O2)cc(F)c2nc(-c3ccc([N+](=O)[O-])cc3)cn12 [Compound 58]", "CC50": "> 100 µM"}
{"compound": "O=c1n([C@H]2CO[C@@H](CO)O2)cc(F)c2nc(-c3ccc(F)cc3)cn12 (stereo in doubt) [Compound 48]", "CC50": "> 100 µM"}
{"compound": "O=c1n(C2CO[C@H](CO)O2)ccc2nc(-c3ccc(F)cc3)cn12 (stereo in doubt) [Compound 43]", "CC50": "> 100 µM"}
{"compound": "O=c1n([C@H]2CC[C@@H](CO)O2)ccc2nc(-c3ccc([N+](=O)[O-])cc3)cn12 [Compound 32]", "CC50": "> 100 µM"}
{"compound": "O=c1n([C@H]2CO[C@@H](CO)O2)ccc2nc(-c3ccc([N+](=O)[O-])cc3)cn12 [Compound 46]", "CC50": "> 100 µM"}

Problem: I have this compound here, O=c1n([C@H]2CO[C@H](CO)O2)cc(F)c2nc(-c3ccc(F)cc3)cn12 [Compound 55] , and I need its recorded CC50.
Result: > 100 µM

Problem: Further, for O=c1n([C@H]2CO[C@H](CO)O2)ccc2nc(-c3ccc([N+](=O)[O-])cc3)cn12 [Compound 53] ?
Result: > 10 µM

====

protocolDetails: Cytotoxicity using T cells
Assay type: cell-based
measurementLabel: CC50 (µM)
Record the value in µM, omitting the unit from your answer.

Answered examples (2):
{"compound": "O=c1n([C@@H]2CC[C@H](CO)O2)ccc2nc(-c3ccc([N+](=O)[O-])cc3)cn12 [Compound 31]", "outputUnit": "µM", "CC50": 45}
{"compound": "O=c1n([C@@H]2CC[C@H](CO)O2)cc(F)c2nc(-c3ccc(F)cc3)cn12 [Compound 33]", "outputUnit": "µM", "CC50": 90}

Problem: Requested field: CC50. Item: O=c1n([C@@H]2CO[C@H](CO)O2)ccc2nc(-c3ccc([N+](=O)[O-])cc3)cn12 [Compound 45]
Result: 10

====

protocolDetails: Cytotoxicity using T cells
Assay type: cell-based
measurementLabel: CC50

Solved cases (2 shown):
{"cpdSmiles": "O=c1n([C@H]2CO[C@@H](CO)O2)cc(F)c2nc(-c3ccc([N+](=O)[O-])cc3)cn12", "experimentalValue": "> 100 µM"}
{"cpdSmiles": "O=c1n([C@H]2CO[C@@H](CO)O2)ccc2nc(-c3ccc(F)cc3)cn12", "experimentalValue": "> 100 µM"}

Continue with the next molecule.
Problem: // lookup CC50 for O=c1n([C@H]2CC[C@@H](CO)O2)cc(F)c2nc(-c3ccc([N+](=O)[O-])cc3)cn12
Result: > 100 µM
